# studyTarget: T1, GST-human NOGO-A56 (human, UniProt Q9NQC3 586-785)
# T1 construct: GST-tagged fusion expressed in E. coli BL21 from pGEX-6P1; also called hNOGO; human NOGO 5+6 GST; not shown: Glutathione S-transferase tag encoded by vector pGEX-6P1 (N-terminal, with vector linker)
# T1 sequence: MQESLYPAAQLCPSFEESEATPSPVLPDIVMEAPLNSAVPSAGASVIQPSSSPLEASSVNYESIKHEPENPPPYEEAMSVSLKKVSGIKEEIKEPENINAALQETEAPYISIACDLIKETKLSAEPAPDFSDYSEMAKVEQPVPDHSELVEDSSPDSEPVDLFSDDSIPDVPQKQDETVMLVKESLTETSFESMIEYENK
# assayRemarks: SPR (Biacore), GST-human NOGO-A56 immobilised, purified antibody as analyte; single experiment
measurementName: koff (s⁻¹)
Please reply with the bare figure in s⁻¹ and do not write the unit itself.

Some entries whose results are on file:
[
  {
    "binder": "H24L16 (antibody, human IgG1, kappa, V domains shown, human gamma1 mutated constant region, human kappa) VH: QVQLVQSGAEVKKPGASVKVSCKASGYTFTSYWMHWVKQRPGQGLEWIGNINPSNGGTNYNEKFKSKATLTVDTSTSTAYMELSSLRSEDTAVYYCELGQGYWGQGTLVTVSS VL: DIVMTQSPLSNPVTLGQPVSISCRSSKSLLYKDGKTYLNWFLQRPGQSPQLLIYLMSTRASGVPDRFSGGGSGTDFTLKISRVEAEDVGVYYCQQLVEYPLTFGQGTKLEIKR",
    "koff (s⁻¹)": 0.00572
  },
  {
    "binder": "H22L16 (antibody, human IgG1, kappa, V domains shown, human gamma1 mutated constant region, human kappa) VH: QVQLVQSGAEVKKPGASVKVSCKASGYTFTSYWMHWVKQRPGQGLEWIGNINPSNGGTNYNEKFKSKATMTRDTSTSTAYMELSSLRSEDTAVYYCELGQGYWGQGTLVTVSS VL: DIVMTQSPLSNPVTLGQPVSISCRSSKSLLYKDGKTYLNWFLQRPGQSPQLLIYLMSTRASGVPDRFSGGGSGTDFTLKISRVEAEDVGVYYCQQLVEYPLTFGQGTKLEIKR",
    "koff (s⁻¹)": 0.00767
  },
  {
    "binder": "H1L11 (antibody, human IgG1, kappa, V domains shown) VH: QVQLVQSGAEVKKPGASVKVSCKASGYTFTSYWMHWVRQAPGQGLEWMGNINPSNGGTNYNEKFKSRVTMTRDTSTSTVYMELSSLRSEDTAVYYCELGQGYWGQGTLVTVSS VL: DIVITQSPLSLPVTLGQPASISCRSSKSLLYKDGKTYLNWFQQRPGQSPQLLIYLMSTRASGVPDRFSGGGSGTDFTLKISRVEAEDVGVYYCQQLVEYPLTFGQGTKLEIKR",
    "koff (s⁻¹)": 0.0282
  }
]

# input binder: HcLc (antibody, human IgG1, kappa, V domains shown, also called chimera of 2A10; 2A10 chimeric antibody) VH: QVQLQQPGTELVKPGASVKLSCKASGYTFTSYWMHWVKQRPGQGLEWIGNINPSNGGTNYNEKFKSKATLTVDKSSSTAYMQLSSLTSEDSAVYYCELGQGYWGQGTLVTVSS VL: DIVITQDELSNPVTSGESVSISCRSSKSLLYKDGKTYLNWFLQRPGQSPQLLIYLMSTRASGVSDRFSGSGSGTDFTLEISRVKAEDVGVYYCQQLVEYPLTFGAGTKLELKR ; wanted: its koff 0.0035

# input binder: H20L16 (antibody, human IgG1, kappa, V domains shown, human gamma1 mutated constant region, human kappa; also called H20L16 FL) VH: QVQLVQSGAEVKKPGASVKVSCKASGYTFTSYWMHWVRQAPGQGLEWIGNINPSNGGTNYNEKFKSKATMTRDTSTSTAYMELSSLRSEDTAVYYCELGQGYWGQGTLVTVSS VL: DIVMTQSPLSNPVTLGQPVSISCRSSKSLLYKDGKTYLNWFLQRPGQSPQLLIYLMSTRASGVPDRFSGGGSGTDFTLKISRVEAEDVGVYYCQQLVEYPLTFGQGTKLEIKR ; wanted: its koff 0.00847

# input binder: H23L16 (antibody, human IgG1, kappa, V domains shown, human gamma1 mutated constant region, human kappa) VH: QVQLVQSGAEVKKPGASVKVSCKASGYTFTSYWMHWVKQRPGQGLEWIGNINPSNGGTNYNEKFKSKATMTVDTSTSTAYMELSSLRSEDTAVYYCELGQGYWGQGTLVTVSS VL: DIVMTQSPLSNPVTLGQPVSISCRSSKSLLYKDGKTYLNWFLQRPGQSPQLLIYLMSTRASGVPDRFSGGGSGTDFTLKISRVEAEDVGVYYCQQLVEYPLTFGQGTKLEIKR ; wanted: its koff 0.00587

# input binder: H6L13 (antibody, human IgG1, kappa, V domains shown) VH: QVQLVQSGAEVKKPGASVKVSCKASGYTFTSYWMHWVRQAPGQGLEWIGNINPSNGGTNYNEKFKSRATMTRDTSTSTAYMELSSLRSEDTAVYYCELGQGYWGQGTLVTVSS VL: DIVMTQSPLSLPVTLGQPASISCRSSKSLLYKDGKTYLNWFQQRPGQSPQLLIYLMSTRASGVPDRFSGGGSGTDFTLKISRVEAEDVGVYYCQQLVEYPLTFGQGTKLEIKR ; wanted: its koff 0.0157
